- Study target: T1, Proteinase-Activated Receptor-2 (human, on human keratinocytes) (human, UniProt P55085 37-397)
- T1 sequence (looked up): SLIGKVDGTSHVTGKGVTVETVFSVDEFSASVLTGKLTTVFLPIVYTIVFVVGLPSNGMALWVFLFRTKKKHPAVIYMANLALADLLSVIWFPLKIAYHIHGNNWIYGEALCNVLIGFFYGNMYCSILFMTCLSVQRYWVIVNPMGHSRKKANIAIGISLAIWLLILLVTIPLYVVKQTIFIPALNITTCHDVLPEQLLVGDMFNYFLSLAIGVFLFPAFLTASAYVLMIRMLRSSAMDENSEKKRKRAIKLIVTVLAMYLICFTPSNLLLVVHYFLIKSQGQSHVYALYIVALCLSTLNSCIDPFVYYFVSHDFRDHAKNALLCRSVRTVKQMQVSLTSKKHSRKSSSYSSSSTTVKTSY
- Assay remarks: cell-based or functional assay
Readout name: PAR-2 activity (calcium fluorescence, human keratinocytes, peptide at 1 mg/mL) (%)

Below, 3 binders whose answers are already recorded.
[
  {
    "Binder": "Ac-FFWFHS-NH2 [Ac-L-Phe-L-Phe-L-Trp-L-Phe-L-His-L-Ser-NH2]",
    "Recorded number": 50.8
  },
  {
    "Binder": "Ac-FMQFIS-NH2 [Ac-L-Phe-L-Met-L-Gln-L-Phe-L-Ile-L-Ser-NH2]",
    "Recorded number": 10.9
  },
  {
    "Binder": "Ac-FMRDHS-NH2 [Ac-L-Phe-L-Met-L-Arg-L-Asp-L-His-L-Ser-NH2]",
    "Recorded number": 33.1
  }
]

[I] Ac-SMWFIS-NH2 [Ac-L-Ser-L-Met-L-Trp-L-Phe-L-Ile-L-Ser-NH2]
[II] Ac-FMRFIV-NH2 [Ac-L-Phe-L-Met-L-Arg-L-Phe-L-Ile-L-Val-NH2]
Which value of PAR-2 activity (calcium fluorescence, human keratinocytes, peptide at 1 mg/mL) is smaller, the one for I or the one for II ? Record your answer as the label of the chosen record.
I
(I: 32.2%, II: 59.1%)
